- Tested on: A. niger 16404
- TEST DETAILS: In vitro antifungal activity, MIC (modified Autotiter method)
- Format: cell-based, Aspergillus niger
- STATED CONDITIONS: Aspergillus niger, 16404, 20 h, 18-20 hours at 37° C.; read-out: MIC A. niger 16404
I'd be grateful if you could share measured MIC for these entries.

[[record]]
compound = "CCCCCCCCNc1cc[n+](CCCCCCC[n+]2ccc(NCCCCCCCC)cc2)cc1 [Example 43]"
measured_metric = "MIC"
experimental_value = "7.8 µg/mL"


Please state, for each entry, its recorded MIC.
1. CCCCCCCCNc1cc[n+](CCCCCCCCC[n+]2ccc(NCCCCCCCC)cc2)cc1 [Example 44A]
2. CCCCCCNc1cc[n+](CCCCCCC[n+]2ccc(NCCCCCC)cc2)cc1 [Example 18]
3. Nc1cc[n+](CCCCCCCC[n+]2ccc(N)cc2)cc1 [I, reference compound]
4. CCCNc1cc[n+](CCCCCCCCCC[n+]2ccc(NCCC)cc2)cc1 [Example 30]

["3.9 µg/mL", "15.6 µg/mL", "125 µg/mL", "31.3 µg/mL"]

====

- System: E. coli Vogel
- TEST DETAILS: In vitro antibacterial activity, MIC (modified Autotiter method)
- Assay type: cell-based, Escherichia coli
- STATED CONDITIONS: 18-20 hours at 37° C.
MEASURED METRIC: MIC E. coli Vogel (µg/mL)
Give bare numbers, in µg/mL.

Consider the worked cases shown below.
[[record]]
compound = "CCCCCCCNc1cc[n+](CCCCCCCCCC[n+]2ccc(NCCCCCCC)cc2)cc1"
assayed_system = "E. coli Vogel"
scale_unit = "µg/mL"
experimental_value = 0.5

[[record]]
compound = "CCCCCCCCNc1cc[n+](CCCCCCCCCC[n+]2ccc(NCCCCCCCC)cc2)cc1 [Example 10C]"
assayed_system = "E. coli Vogel"
scale_unit = "µg/mL"
experimental_value = 1.0

[[record]]
compound = "CCCCCCCNc1cc[n+](CCCCCCCC[n+]2ccc(NCCCCCCC)cc2)cc1"
assayed_system = "E. coli Vogel"
scale_unit = "µg/mL"
experimental_value = 1.95

[[record]]
compound = "CCCCCCNc1cc[n+](CCCCCCCCCCCC[n+]2ccc(NCCCCCC)cc2)cc1 [Example 7]"
assayed_system = "E. coli Vogel"
scale_unit = "µg/mL"
experimental_value = 0.37

[[record]]
compound = "CCCCCCCNc1cc[n+](CCCCCCCCCCCC[n+]2ccc(NCCCCCCC)cc2)cc1 [Example 3]"
assayed_system = "E. coli Vogel"
scale_unit = "µg/mL"
experimental_value = 1.56

[[record]]
compound = "CCCCCCCCNc1cc[n+](CCCCCCCC[n+]2ccc(NCCCCCCCC)cc2)cc1"
assayed_system = "E. coli Vogel"
scale_unit = "µg/mL"
experimental_value = 1.0


# per-item lookup of MIC E. coli Vogel; items listed below
1. CCCCC(CC)CNc1cc[n+](CCCCCCCCCC[n+]2ccc(NCC(CC)CCCC)cc2)cc1 (centres unmarked)
2. CCCCCCCCNc1cc[n+](CCCCCC[n+]2ccc(NCCCCCCCC)cc2)cc1

1.0
1.0

====

- Tested on: A. niger 16404
- TEST DETAILS: In vitro antifungal activity, MIC (modified Autotiter method)
- Format: cell-based, Aspergillus niger
- STATED CONDITIONS: Aspergillus niger, 16404, 20 h, 18-20 hours at 37° C.; read-out: MIC A. niger 16404
MIC vs 20 µg/mL: less than gives Condition met; not less than gives Condition not met.

[[record]]
compound = "CCCCCCNc1cc[n+](CCCCC[n+]2ccc(NCCCCCC)cc2)cc1"
assayed_system = "A. niger 16404"
answer_label = "Condition not met"

[[record]]
compound = "c1c[n+](CCCCCCCC[n+]2ccc(NC3CCCCC3)cc2)ccc1NC1CCCCC1"
assayed_system = "A. niger 16404"
answer_label = "Condition met"

[[record]]
compound = "CCCCCCCCCCNc1cc[n+](CCCCCC[n+]2ccc(NCCCCCCCCCC)cc2)cc1 [Example 64B]"
assayed_system = "A. niger 16404"
answer_label = "Condition met"

[[record]]
compound = "Nc1cc[n+](CCCCCCCCC[n+]2ccc(N)cc2)cc1 [VII, reference compound]"
assayed_system = "A. niger 16404"
answer_label = "Condition not met"

[[record]]
compound = "CCCCCCCNc1cc[n+](CCCCCCCC[n+]2ccc(NCCCCCCC)cc2)cc1"
assayed_system = "A. niger 16404"
answer_label = "Condition met"

[[record]]
compound = "Clc1ccc(Nc2cc[n+](CCCCCCCC[n+]3ccc(Nc4ccc(Cl)cc4)cc3)cc2)cc1 [Example 78B]"
assayed_system = "A. niger 16404"
answer_label = "Condition not met"

[[record]]
compound = "Clc1ccc(Nc2cc[n+](CCCCCCC[n+]3ccc(Nc4ccc(Cl)cc4)cc3)cc2)cc1"
assayed_system = "A. niger 16404"
answer_label = "Condition not met"

[[record]]
compound = "Nc1cc[n+](CCCCCCCCCCCC[n+]2ccc(N)cc2)cc1 [V, reference compound]"
assayed_system = "A. niger 16404"
answer_label = "Condition not met"


Would you kindly look at the next entry?
Decide: MIC of `Fc1ccc(Nc2cc[n+](CCCCCCCC[n+]3ccc(Nc4ccc(F)cc4)cc3)cc2)cc1` strictly below 20 µg/mL?
Condition met

====

- System: E. Coli ATCC 8739
- TEST DETAILS: Effect of serum on bacteriostatic activity (serial tube dilution test)
- Type: cell-based, Escherichia coli
- STATED CONDITIONS: Escherichia coli, ATCC8739; 40% heat inactivated horse serum; read-out: MIC E. Coli ATCC 8739 40% Serum
Mark condition met only for MIC values smaller than 20 µg/mL; exact matches and larger values are condition not met.

[[record]]
compound = "CCCCC(CC)CNc1cc[n+](CCCCCCCCCCCC[n+]2ccc(NCC(CC)CCCC)cc2)cc1 (centres unmarked) [Example 41C]"
answer_label = "condition not met"

[[record]]
compound = "CCCCCCNc1cc[n+](CCCCCCCCCCCC[n+]2ccc(NCCCCCC)cc2)cc1 [Example 7]"
answer_label = "condition met"

[[record]]
compound = "CCCCCCCNc1cc[n+](CCCCCCCCCC[n+]2ccc(NCCCCCCC)cc2)cc1 [Example 26]"
answer_label = "condition met"

[[record]]
compound = "CCCCCCCCCNc1cc[n+](CCCCCCCC[n+]2ccc(NCCCCCCCCC)cc2)cc1 [Example 29C]"
answer_label = "condition not met"


Determine whether this compound shows MIC lower than 20 µg/mL (ties excluded): CCCCCCCCNc1cc[n+](CCCCCC[n+]2ccc(NCCCCCCCC)cc2)cc1 [Example 13]
condition not met

Find out if reported MIC for CCCCC(CC)CNc1cc[n+](CCCCCCCCCC[n+]2ccc(NCC(CC)CCCC)cc2)cc1 (centres unmarked) [Example 58] is less than 20 µg/mL
condition met

Please check: MIC for CCCCCCCNc1cc[n+](CCCCCCCC[n+]2ccc(NCCCCCCC)cc2)cc1 [Example 22] , strictly under 20 µg/mL or not?
condition met

For this compound, is MIC lower than 20 µg/mL? Clc1ccc(Nc2cc[n+](CCCCCCCCCC[n+]3ccc(Nc4ccc(Cl)cc4)cc3)cc2)cc1 [Example 79B]
condition met

====

Kindly supply the reported MIC T. menta. 9129 values for the records listed here.
- Tested on: T. menta. 9129
- TEST DETAILS: In vitro antifungal activity, MIC (modified Autotiter method)
- Assay type: cell-based, Trichophyton mentagrophytes
- STATED CONDITIONS: 18-20 hours at 37° C.
One number for each entry, in µg/mL.

As a guide, the following entries are already answered.
[[record]]
compound = "CCCCCCCNc1cc[n+](CCCCCCCCCCCC[n+]2ccc(NCCCCCCC)cc2)cc1 [Example 3]"
experimental_value = 1.56

[[record]]
compound = "CCCCCCCNc1cc[n+](CCCCCCCCCC[n+]2ccc(NCCCCCCC)cc2)cc1"
experimental_value = 1.0

[[record]]
compound = "CCCCCCCCNc1cc[n+](CCCCCCCC[n+]2ccc(NCCCCCCCC)cc2)cc1"
experimental_value = 1.0

[[record]]
compound = "CCCCC(CC)CNc1cc[n+](CCCCCCCCCC[n+]2ccc(NCC(CC)CCCC)cc2)cc1 (centres unmarked)"
experimental_value = 1.0

[[record]]
compound = "CCCCCCCNc1cc[n+](CCCCCCCCCCCC[n+]2ccc(NCCCCCCC)cc2)cc1 [Example 4]"
experimental_value = 0.5

[[record]]
compound = "CCCCCCCNc1cc[n+](CCCCCCCC[n+]2ccc(NCCCCCCC)cc2)cc1"
experimental_value = 1.95

[[record]]
compound = "CCCCCCNc1cc[n+](CCCCCCCCCCCC[n+]2ccc(NCCCCCC)cc2)cc1 [Example 7]"
experimental_value = 0.37


Let's switch to this compound now.
Return MIC T. menta. 9129 measured with T. menta. 9129 given this compound: `CCCCCCNc1cc[n+](CCCCCCCCCCCCCC[n+]2ccc(NCCCCCC)cc2)cc1`
0.5
